test system: COLO 205; assay: NCI tumour cell line growth inhibition, 48 h
Activity calls are given as the source filed them. No stated cut-off is given here; in the data, active = GI50 up to about 1.1 µM and inactive = higher.
measurement_label: GI50

Solved entries (count: 5):
> print(dat)
                                   compound          assay.value
1            Nc1ccc(C(=O)/C=C/c2ccccc2O)cc1  > 100 µM (inactive)
2             COc1cnnc2c(C)c(-c3ccccc3)nn12  > 100 µM (inactive)
3  COc1ccc2c(O)c(S(=O)(=O)c3ccc(C)cc3)c(=O)oc2c1OC  > 100 µM (inactive)
4  O=C1C(Nc2ccc(S(=O)(=O)Nc3cnc4ccccc4n3)cc2)=C/C(=N\c2ccc(S(=O)(=O)Nc3cnc4ccccc4n3)cc2)c2ccccc21   18.5 µM (inactive)
5  CC1=NNC(=O)C1C1C=C(c2c[nH]c3ccccc23)OC1=O (stereo not given)  > 100 µM (inactive)

Q) Would you mind telling me what GI50 value was observed for O=C1N/N=C\Nc2ccc(cc2)S(=O)(=O)c2ccc(cc2)/N=C\NNC1=O ?
A) > 100 µM (inactive)

Q) Can you look up the measured GI50 of COc1cccc(C2N3CCCCC3[C@@H]3c4[nH]c5ccccc5c4CCN23)c1OC (stereo not given in full) for me?
A) 15.2 µM (inactive)

Q) What value of GI50 has been recorded for this entry: O=C(CN1C(=O)c2ccccc2C1=O)C(O)CN1C(=O)c2ccccc2C1=O (stereo not given)
A) > 100 µM (inactive)

Q) Can you share its GI50? I mean this compound: CN1CCN(c2ccc3nc(C4=C(O)C(=O)[C@@H]5C(=C4O)N=C(CO)N5C)[nH]c3n2)CC1
A) 80.5 µM (inactive)

Q) Query (compound): CCCCN(CCCC)CC(C(=O)Nc1ccc([N+](=O)[O-])cc1[N+](=O)[O-])/C(C)=N\NC(=O)C[N+](C)(C)C (stereo not given) ; field requested: GI50
A) 35.7 µM (inactive)

Q) I would be grateful if you could share the reported GI50 for COc1c(Sc2ccccc2)cc(Sc2ccccc2)c2cccnc12 .
A) 19.6 µM (inactive)

Q) Name the recorded GI50 for Cc1cc2c(C=O)n[nH]c2c(C#N)c1C .
A) > 100 µM (inactive)

Q) What does the record list as GI50 for CC1CCC(C(C)C)C(OC(=O)NCn2cc(-c3ccccc3)nn2)C1 (stereo not given) ?
A) > 100 µM (inactive)

Q) What value of measured GI50 is listed for N#Cc1cccc(NC(=O)c2ccc(C(=O)O)c(C(=O)c3ccc(C(=O)O)c(C(=O)Nc4cccc(C#N)c4)c3)c2)c1 ?
A) > 100 µM (inactive)

Q) Quick one: GI50 of Cc1nc2ccc(F)cc2c(Cl)c1CCCl ?
A) 20 µM (inactive)

Q) Record request: GI50 value, item COc1ccc(/C=N/NS(=O)(=O)c2ccc(/C=C3\NC(=O)N(C)C3=O)cc2)cc1
A) > 100 µM (inactive)

Q) Requested field: GI50. Item: COc1cccc(-c2cc(O)c3cc(N4CCN(C)CC4)ccc3n2)c1
A) 1.67 µM (inactive)

Q) Item O=C(CC(=O)C1CCOC1=O)C(=O)Nc1ccc(Cl)cc1 (stereo not given) has what recorded GI50?
A) > 100 µM (inactive)

Q) Quick one: GI50 of Cc1c(N2C(=O)/C(=C/c3ccc(N(CCC#N)CCC#N)cc3)N=C2c2ccccc2)c(=O)n(-c2ccccc2)n1C ?
A) > 100 µM (inactive)

Q) Could you share which GI50 value was measured for O=C(NNC(=S)Nc1ccccc1)c1nsc2ccccc12 ?
A) 39.7 µM (inactive)

###

test system: 786-0; experiment: NCI tumour cell line growth inhibition, 48 h
Active and inactive are the calls of the source. Cut-off read from the data, not from the text of the source: active = GI50 up to about 1.1 µM and inactive = higher.
The reply should be one of these categories: active, inactive

Q) Please state the recorded outcome for this compound: CC1=CC(O)(c2ccccc2)C(N2CCOCC2)N1O (stereo not given)
A) inactive

Q) Write down the call the test reported for this compound. Item: CCCCCCCCCCCCCC(=O)O[C@H]1CC[C@H](NC(=O)[C@H](OC)[C@H](O)[C@@H](O)[C@H](O)/C=C/C(C)C)C(=O)N(C)C1 [BENGAMIDE B]
A) active

Q) Name the outcome recorded for Cc1cc(O)nc(NNC(C#N)c2ccc(N(C)C)cc2)n1 (stereo not given) in the assay.
A) inactive

Q) Per the assay record, what outcome was assigned to O=C1N/N=C\Nc2ccc(cc2)S(=O)(=O)c2ccc(cc2)/N=C\NNC1=O ?
A) inactive

Q) Which outcome was entered for the compound COc1ccc(/C=N/NS(=O)(=O)c2ccc(/C=C3\NC(=O)N(C)C3=O)cc2)cc1 in this test?
A) inactive

###

system: CAKI-1; experiment: NCI tumour cell line growth inhibition, 48 h
Active and inactive are the calls of the source. Rule as the data show it: active = GI50 up to about 1.1 µM and inactive = higher.
measurement_label: GI50

> print(dat)
                                   molecule          assay.value
1  O=C(CC(=O)C1CCOC1=O)C(=O)Nc1ccc(Cl)cc1 (stereo not given)  > 100 µM (inactive)
2  COc1ccccc1C(=O)N(Cc1ccccc1)c1ccc(Cl)c(C(=O)OC(C)C)c1   12.3 µM (inactive)
3  C=CCOC1OC(CO[Si](C)(C)C(C)(C)C)C(OCc2ccccc2)C(OCc2ccccc2)C1OCc1ccccc1 (stereo not given)   54.5 µM (inactive)
4  CC/C(=N/O)c1ccc2[nH]c3c(C)cc([N+](=O)[O-])c(C)c3c2c1  > 100 µM (inactive)

Now consider the entry below.
Q) State the recorded GI50 for this entry: N#CC(Sc1ccccc1)C(N)=O (stereo not given)
A) > 100 µM (inactive)

###

system: SK-OV-3; test: NCI tumour cell line growth inhibition, 48 h
Activity calls are given as the source filed them. No stated cut-off is given here; in the data, active = GI50 up to about 1.1 µM and inactive = higher.
Outcomes you can answer with include only these: active, inactive

compound	class_name
COc1cccc(C2c3cc4c(cc3OC(C)(N3CCCC3)C2C)OCO4)c1O (stereo not drawn)	inactive
CC(C)(C)OC(=O)NC(Cc1ccccc1)C(=O)OCN1C(=O)C2C3C=CC(C2C1=O)C1C2C(=O)N(COC(=O)C(Cc4ccccc4)NC(=O)OC(C)(C)C)C(=O)C2C31 (stereo not drawn)	inactive
COC(=O)[C@@H]1[C@@H](c2cccc(Cl)c2)[C@H](C(=O)OC)C2(C[C@@]1(C)O)NCCS2 (stereo partly drawn)	inactive
S=C(/N=c1\sc(NCc2ccccc2)nc2sc3c(c12)CCN(N1CCc2c(sc4nc(NCc5ccccc5)s/c(=N\C(=S)NCc5ccccc5)c24)C1)C3)NCc1ccccc1	inactive
COc1cccc(C2N3CCCCC3[C@@H]3c4[nH]c5ccccc5c4CCN23)c1OC (stereo partly drawn)	inactive

Below: the item to evaluate.
Q) Name the outcome recorded for Clc1cc(Cl)c2cc3cccc[n+]3cc2c1Cl in the assay.
A) inactive

###

tested on: LXFL 529; test: NCI tumour cell line growth inhibition, 48 h
Active and inactive are the calls of the source. No stated cut-off is given here; in the data, active = GI50 up to about 1.1 µM and inactive = higher.
measurement_label: GI50

Q) Hello, I am looking for reported GI50 with LXFL 529 for CC1=C(C(=O)Nc2ccccc2C)C(c2ccccc2O)C(C(=O)Nc2ccccc2C)=C(C)N1 . Could you help?
A) 20.1 µM (inactive)

Q) Lab note: need GI50 with LXFL 529 for entry O=C(NOC(=O)c1ccc([N+](=O)[O-])cc1)c1ccc(Cl)cc1 , please look it up.
A) 17.9 µM (inactive)

Q) Missing value: GI50, LXFL 529, entry CC(=O)CC(=O)ON(C)C(C)=O . Fill in?
A) > 100 µM (inactive)

###

system: Malme-3M; assay: NCI tumour cell line growth inhibition, 48 h
The source made the active and inactive calls. No stated cut-off is given here; in the data, active = GI50 up to about 1.1 µM and inactive = higher.
We begin with a simple list: items and their reported GI50.

Before answering, review these 8 worked examples.
> print(dat)
                                   compound  measurement.label          assay.value
1  CCN(CC)CCOc1ccc(C(O)(Cc2ccc(OC)cc2)c2ccccc2)cc1 (stereo not given)               GI50   18.5 µM (inactive)
2  COC(=O)C(=O)C(C(=O)C(=O)Nc1ccc(F)cc1)c1nc2ccc([N+](=O)[O-])cc2nc1O (stereo not given)               GI50  > 100 µM (inactive)
3  CCc1nnc2sc(-c3ccc(-c4ccc(Cl)cc4Cl)o3)nn12               GI50  > 100 µM (inactive)
4  COC1(OC)c2no[n+]([O-])c2CCC1O (stereo not given)               GI50  > 100 µM (inactive)
5               COc1c(O)cc2c3c(ccnc13)NC=C2               GI50   85.7 µM (inactive)
6  CCCCN(CCCC)CC(C(=O)Nc1ccc([N+](=O)[O-])cc1[N+](=O)[O-])/C(C)=N\NC(=O)C[N+](C)(C)C (stereo not given)               GI50  > 100 µM (inactive)
7  OC(COc1cccc2ccccc12)CN1CCOCC1 (stereo not given)               GI50  > 100 µM (inactive)
8  C[C@]12C(=O)OC[C@H](c3ccccc3)N1C(=O)N(Cc1ccccc1)[C@@H]2CO               GI50  > 100 µM (inactive)

Q) What does the data say about its GI50? Entry: CC1(C)NC(C(=O)c2ccccc2)=[N+]([O-])C1(O)c1ccccc1 (stereo not given)
A) > 100 µM (inactive)

Q) Returns the measured GI50 for the input compound. Input: CCN(CC)CCn1c2cc3c(cc2c(=O)c2cccnc21)OCO3
A) 4.84 µM (inactive)
